Numbers sourced from patent US20210253725A1.

# study-target: T1, CD134 expressed on the cell surface of HT1080_OX40 cells (human, UniProt P43489 29-277); note: test concentration or dose not given here
# T1 sequence (looked up): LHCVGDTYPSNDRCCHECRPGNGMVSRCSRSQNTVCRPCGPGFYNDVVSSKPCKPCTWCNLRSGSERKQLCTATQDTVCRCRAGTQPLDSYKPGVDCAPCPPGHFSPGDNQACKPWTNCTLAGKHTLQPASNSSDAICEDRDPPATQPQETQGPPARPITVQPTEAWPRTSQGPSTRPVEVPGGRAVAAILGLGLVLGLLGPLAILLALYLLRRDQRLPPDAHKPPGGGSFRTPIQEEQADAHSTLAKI
# test-summary: cell-based or functional assay
assay-readout: Functional assay Cross-linked by F(ab′)2 fragment IL-8 (abs. corr.)

[[record]]
binder = "P018.S.12.A.E01 (antibody, V domains shown, V regions on human Ig constant parts; also called AB134_72) VH: QSVEESGGRLVTPGGSLTLTCTVSGIDLSSADMSWVRQAPGEGLEYIGWINNVGSAYYASWAKGRFSISKTSSTTVDLKVTSLTTEDTATYFCVRGYWLDLWGQGTLVTVSS VL: AAVLTQTPSPVSAAVGGTVSISCQSSVNVYNNNYLAWFQQKPGQPPKLLIYAASTLPSGVSSRFSGNGSGTEFTLTISGVQSDDAATYYCVGYYSSTDDNGFGGGTEVVVK"
unit_annotation = "abs. corr."
test_result = 2.04

[[record]]
binder = "P018.S.11.A.H05 (antibody, V domains shown, V regions on human Ig constant parts; also called AB134_48) VH: QQRLVESGGGLVKPGASLTLTCTASGFSFSSGYDMCWVRQAPGKGLEWVGCIDTATDTIYYASWAPGRFTISKTSSTMVTLQMTSLTAADTATYFCARSVGGVDYAIDLWGPGTLVTVSS VL: AYDMTQTPVSVEVPVGGTVTIKCQASQNIGSRLVWYQQKPGQSPKFLIYYASNLASGVSSRFKGSGSGTQFTLTISDVQSDNAATYYCQQTYSYSDVDDTFGGGTEVVVK"
unit_annotation = "abs. corr."
test_result = 2.01

[[record]]
binder = "P018.S.02.A.H03 (antibody, V domains shown, V regions on human Ig constant parts; also called AB134_3) VH: QSLEESGGRLVTPGGSLTLTCTVSGIDLSSYGMGWVRQAPGKGLEWIGTISYGGSTFYANWVKGRFTISKTSTTVDLKVTSLTTEDAATYFCAREVPYWSLWGQGTLVTVSS VL: AYDMTQTPASVAAAVGGTVTIKCQASQSIGSDLSWYQQKRGQPPKLLIYDASTLASGVPSRFKGSGSGTEFTLTISDVQSADAATVYCQQDYSYRNVDNTFGGGTEVVVK"
unit_annotation = "abs. corr."
test_result = 1.95

[[record]]
binder = "P018.S.11.A.G05 (antibody, V domains shown, V regions on human Ig constant parts; also called AB134_45) VH: QSLEESGGDLVKPGASLTLTCAASGFSLNNWVMCWVRQAPGKGLEWIACIDIVGSGSTHYATWAKGRFTMSKASSITVTLQMTSLTAADTATYFCARGVNGDGNLNLWGPGTLVTVSS VL: DVVMTQTPASVSEPVGGAVTIKCQASETISNYLAWYQQKPGQRPKLLIYGASNLESGVPSRFKGSGSGTEFTLTISDLESADAATYYCQCTYVGDSYTAFGGGTEVVVK"
unit_annotation = "abs. corr."
test_result = 2.05

